biological target: Collagenase 3 (Homo sapiens)
endpoint-label: IC50

What does the data say about its IC50? Entry: O=S(=O)(Nc1ccc(-c2nc3cccnc3s2)cc1)c1cccs1 > 39.8 µM

What does the data say about its IC50? Entry: CCOC(=O)CSc1nc(-c2ccc3c(c2)OCO3)ccc1C#N > 39.8 µM

###

Notes on IC50 obtained with UniProt P45452.

Cc1nn(-c2ccccc2)c2sc(-c3nnc(S)o3)cc12
0.883 µM
COc1cccc(-c2nnc(Nc3nc4c(F)cccc4s3)o2)c1
> 39.8 µM

What does the data say about its IC50? Entry: Fc1cccc2sc(Nc3nnc(-c4ccccc4)o3)nc12 > 39.8 µM
